biological target: Thermus-derived TyrRS (Thermus thermophilus); construct: host or cells: Escherichia coli BL21 (DE3); assay: Qualitative test of AARS substrate specificity (AARS activity at 70° C.); format: biochemical, Thermus thermophilus HB8 strain; set-up: key: +: Activity was detected; −: Activity was not detected; conditions: amino acids 200 μM, hydroxylamine 400 mM
Sequence (P83453 whole entry): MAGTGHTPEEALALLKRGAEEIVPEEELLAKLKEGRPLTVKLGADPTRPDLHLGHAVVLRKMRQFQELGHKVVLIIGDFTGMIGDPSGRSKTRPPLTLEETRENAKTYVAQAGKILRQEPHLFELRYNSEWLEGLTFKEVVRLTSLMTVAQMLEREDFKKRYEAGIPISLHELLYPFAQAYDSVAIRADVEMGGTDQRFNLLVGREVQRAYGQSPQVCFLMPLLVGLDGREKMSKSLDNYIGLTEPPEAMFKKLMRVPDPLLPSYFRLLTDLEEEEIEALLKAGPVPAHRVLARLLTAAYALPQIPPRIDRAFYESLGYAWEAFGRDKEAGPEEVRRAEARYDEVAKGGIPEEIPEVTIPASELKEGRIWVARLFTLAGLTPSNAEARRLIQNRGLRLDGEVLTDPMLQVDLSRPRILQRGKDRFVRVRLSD
readout_kind: Detection of the activity (pyrophosphate production), TyrRS (Thermus)

>  <chemical_structure>
N[C@@H](CC(=O)O)C(=O)O

>  <target_of_assay>
Thermus-derived TyrRS (Thermus thermophilus)

>  <result>
−

$$$$
>  <chemical_structure>
N[C@@H](CS)C(=O)O

>  <target_of_assay>
Thermus-derived TyrRS (Thermus thermophilus)

>  <result>
−

$$$$
>  <chemical_structure>
CC(C)[C@H](N)C(=O)O

>  <target_of_assay>
Thermus-derived TyrRS (Thermus thermophilus)

>  <result>
−

$$$$
>  <chemical_structure>
CSCC[C@H](N)C(=O)O

>  <target_of_assay>
Thermus-derived TyrRS (Thermus thermophilus)

>  <result>
−

$$$$
>  <chemical_structure>
N[C@@H](CCC(=O)O)C(=O)O

>  <target_of_assay>
Thermus-derived TyrRS (Thermus thermophilus)

>  <result>
−

$$$$
>  <chemical_structure>
N[C@@H](Cc1c[nH]c2ccccc12)C(=O)O

>  <target_of_assay>
Thermus-derived TyrRS (Thermus thermophilus)

>  <result>
−

$$$$
